System: TF-Silα-Strep (silicatein-α, Silα)
Construct: trigger factor fused at N-terminus, Strep-tag II at C-terminus; recombinant, StrepTrap purified
Assay: UV-VIS spectrophotometric silyl ether hydrolysis, net initial rates
Format: biochemical
Settings: 10% v/v 1,4-dioxane, 50 mM Tris, 100 mM NaCl, pH 8.5
OBSERVABLE: Km (µM)
Numeric answer only, unit µM assumed.

The following compounds have reported results that may help.
| COMPOUND | UNIT_ANNOTATION | Km |
| --- | --- | --- |
| CC(C)C(C)(C)[Si](C)(C)Oc1ccc([N+](=O)[O-])cc1 [compound 2, 2] | µM | 24.1 |
| Cc1cc(O[Si](C)(C)C(C)(C)C)ccc1[N+](=O)[O-] [compound 5] | µM | 34.6 |

Task: Look up and state reported Km for CC(C)[Si](Oc1ccc([N+](=O)[O-])cc1)(C(C)C)C(C)C [compound 3, 3]
Result: 20.4

Task: Please supply the value of reported Km for the item Cc1cc([N+](=O)[O-])ccc1O[Si](C)(C)C(C)(C)C [compound 4]
Result: 72.5

Task: Supply reported Km belonging to this compound: CC(C)(C)[Si](C)(C)Oc1ccc([N+](=O)[O-])cc1 [compound 1, tert-butyldimethyl(4-nitrophenoxy)silane]
Result: 44.4
